Tested on: NCI-H522 lung
Assay remarks: NCI-60 one-dose screen, 48 h
Measurement parameters: 10 µM
This is part of a sample that, as a whole, favours compounds with a hit. Of some 83,000 tested, about 20% had one in any assay. Active and inactive are the calls of the source. How the source made its calls: active means growth percent below 10; inactive means the rest.
Your response should consist of one outcome taken from Yes (active), No (inactive)

query: Each compound tested received a call. Report the one for CNC(=S)Sc1ccc([N+](=O)[O-])cc1[N+](=O)[O-] .
result: Yes

query: Each compound tested received a call. Report the one for COc1ccc(Cn2cc3c(c2-c2ccccc2)CC(C)(C)c2cnoc2-3)cc1 .
result: No

query: Each compound tested received a call. Report the one for CCOc1ccc2c(c1)CC[C@@H]1[C@@H]2CC[C@]2(C)[C@@H](O)[C@@H](O)C[C@@H]12 .
result: No

query: Each compound tested received a call. Report the one for C=CCN1C(=O)/C(=C\c2ccc3c(c2)CCC3)SC1=S .
result: Yes

query: Each compound tested received a call. Report the one for N#Cc1ccc(-n2cnc(NC(=O)[C@H]3CCN(C#N)C3)c2)cc1 .
result: Yes

query: Each compound tested received a call. Report the one for Cc1ccc([P+](Cc2ccc([N+](=O)[O-])cc2)(c2ccc(C)cc2)c2ccc(C)cc2)cc1 .
result: Yes

query: Each compound tested received a call. Report the one for Brc1ccc(-c2cn3ccnc3c(-c3ccc(Br)cc3)n2)cc1 .
result: Yes

query: Each compound tested received a call. Report the one for N#CN1CC[C@H](C(=O)Nc2ncc(-c3ccccc3)s2)C1 .
result: Yes

query: Each compound tested received a call. Report the one for CCOC(=O)Nc1ccc2c(c1)C(=O)N(CC)c1ccccc1O2 .
result: Yes

query: Each compound tested received a call. Report the one for CS(=O)(=O)Nc1ccc([N+](=O)[O-])cc1Oc1ccccc1 .
result: No

---

Tested on: IGROV1 ovarian
Assay remarks: NCI-60 one-dose screen, 48 h
Measurement parameters: 10 µM
Compounds without any hit were thinned out: in the full panel of roughly 83,000, 20% have a hit. Activity calls are given as the source filed them. The calls were made as follows: active = growth percent below 10; inactive = the rest.
Your response should consist of one outcome taken from active, inactive

query: Each compound tested received a call. Report the one for NC1CCC(Nc2nc(NCc3ccc(-c4ccco4)nc3)c3ncn(C4CCCC4)c3n2)CC1 (stereo not drawn) .
result: active

query: Each compound tested received a call. Report the one for CCNC1(NC#N)CCCCC1 .
result: inactive

query: Each compound tested received a call. Report the one for COc1ccc(-c2csc(NC(=O)CO[N+](=O)[O-])n2)cc1 .
result: inactive

query: Each compound tested received a call. Report the one for Nc1ccc(C2=CC(c3ccc(Cl)cc3)N3C=CSC3=N2)cc1 (stereo not drawn) .
result: active

query: Each compound tested received a call. Report the one for COc1ccc(Cn2cc3c(c2-c2ccccc2)CC(C)(C)c2cnoc2-3)cc1 .
result: inactive

query: Each compound tested received a call. Report the one for Cc1ccc(C)c2c1sc1nc3n[nH]c(N)c3c(=N)n12 .
result: inactive

query: Each compound tested received a call. Report the one for O=NN(CCCl)C(=O)Nc1ccc(NC(=O)N(CCCl)N=O)cc1 .
result: inactive

query: Each compound tested received a call. Report the one for N#CN1CC[C@H](C(=O)Nc2ncc(-c3ccncc3)s2)C1 .
result: inactive

query: Each compound tested received a call. Report the one for Cc1cccc2c1O/C(=C\c1ncc([N+](=O)[O-])n1C)C2=O .
result: active

query: Each compound tested received a call. Report the one for COc1ccc(-c2cc(/C=C3\C(=O)Nc4cc(Cl)ccc43)[nH]n2)cc1 .
result: inactive

query: Each compound tested received a call. Report the one for CC(=O)[C@H]1CC[C@H]2[C@@H]3CC[C@@H]4CC=C(C=O)C[C@]4(C)[C@H]3CC[C@]12C .
result: inactive

query: Each compound tested received a call. Report the one for O=S(=O)(NC1c2ccccc2Oc2ccccc21)c1ccccc1 .
result: inactive

query: Each compound tested received a call. Report the one for FC(F)(F)c1ccc(-c2cnc(Cl)nc2NC2CCCCCC2)cc1 .
result: inactive

query: Each compound tested received a call. Report the one for CNCCCNCCCN1C(=O)c2ccc3c4c(ccc(c24)C1=O)C(=O)N(CCCNCc1ccccc1OC)C3=O .
result: active

query: Each compound tested received a call. Report the one for CC(C)(C)CC(C)(C)c1ccc(O)c(Cc2ccc(Cl)cc2Cl)c1 .
result: active

query: Each compound tested received a call. Report the one for COc1ccc(-n2nnc3c(sc4ccccc43)c2=O)cc1 .
result: active

query: Each compound tested received a call. Report the one for COc1ccc(-c2oncc2-c2cc(OC)c3c(c2)OCO3)cc1 .
result: inactive

query: Each compound tested received a call. Report the one for CC(C)C[C@H](NC(=O)Cn1ccc(Nc2ccccc2)cc1=O)B(O)O .
result: inactive

query: Each compound tested received a call. Report the one for O=C/C=C/c1ccc([N+](=O)[O-])cc1Cl .
result: inactive

query: Each compound tested received a call. Report the one for N#CCC1CCCC1 .
result: inactive

query: Each compound tested received a call. Report the one for Cc1noc(C)c1-c1ccc2nc(NC(=O)[C@H]3CCN(C#N)C3)cn2c1 .
result: inactive

query: Each compound tested received a call. Report the one for CN1CCN(c2nc(-c3cccnc3)nc3sc4c(c23)CCCCCC4)CC1 .
result: inactive

query: Each compound tested received a call. Report the one for CC(=O)n1nc(C(=O)OC(C)(C)C)c2cc(F)c(F)cc21 .
result: inactive

---

System: MALME-3M melanoma
Assay remarks: NCI-60 one-dose screen, 48 h
Measurement parameters: 10 µM
Experimental: Cells are grown in 96 well plates and exposed to the test compound for 48 hours. Compounds are tested at a single concentration, which is 10^-5 M for most compounds. The reported endpoint is percent growth (GI% or GIPRCNT), where numbers from 0 - 100% represent growth inhibition, and numbers from -100% - 0 represent cell death. For example, a value of 40 represents 60% growth inhibition. A value of 0 means no net growth occurred over the course of the experiment. […]
Compounds without any hit were thinned out: in the full panel of roughly 83,000, 20% have a hit. Calls of active or inactive are those of the source. How the source made its calls: active means growth percent below 10; inactive means the rest.
Your response should consist of one outcome taken from active, inactive

query: Each compound tested received a call. Report the one for COc1ccc(-c2nsc3c2NC(=O)CC3c2ccc(Cl)cc2)cc1 (configuration not stated) .
result: inactive

query: Each compound tested received a call. Report the one for C[N+]1(CC2CO2)CCCCCC1 (configuration not stated) .
result: inactive

query: Each compound tested received a call. Report the one for NC(N)=NS(=O)(=O)c1ccc(Nc2ccc3nnc(-c4ccncc4)n3n2)cc1 .
result: inactive

query: Each compound tested received a call. Report the one for O=S(=O)(NCCO)c1ccc(OCCOc2ccc(S(=O)(=O)NCCO)cc2)cc1 .
result: inactive

query: Each compound tested received a call. Report the one for O=C(c1ccc(Cl)cc1)c1no[n+]([O-])c1C(=O)c1ccc(Cl)cc1 .
result: active

query: Each compound tested received a call. Report the one for O=NN(CCCl)C(=O)Nc1ccc(NC(=O)N(CCCl)N=O)cc1 .
result: inactive

query: Each compound tested received a call. Report the one for COc1cc(-c2cc(/C=C/C(C)=O)[nH]n2)cc(OC)c1OC .
result: inactive

query: Each compound tested received a call. Report the one for FC(F)(F)c1ccc(-c2cnc(Cl)nc2NC2CCCCCC2)cc1 .
result: active

query: Each compound tested received a call. Report the one for CCCc1c(CC)c(=N)c2ccccc2n1C .
result: active

query: Each compound tested received a call. Report the one for N#Cc1c(-c2ccccc2)nc(SCC(=O)N2CCOCC2)[nH]c1=O .
result: inactive

query: Each compound tested received a call. Report the one for COc1ccc(C(=O)c2sc3nc(-c4cccs4)ccc3c2N)cc1OC .
result: inactive

query: Each compound tested received a call. Report the one for CC(=O)c1ccc(NCn2nc(-c3ccc(Cl)cc3)oc2=S)cc1 .
result: inactive

query: Each compound tested received a call. Report the one for CCCc1ccnc(NS(=O)(=O)c2ccc(N)cc2)n1 .
result: inactive

query: Each compound tested received a call. Report the one for CC(C)/C=N/NC(N)=S .
result: inactive

query: Each compound tested received a call. Report the one for C=C1C(=O)O[C@H]2[C@H]1CC/C(COC(=O)OCCCCCOC(=O)OC/C1=C/CC[C@@]3(C)O[C@H]3[C@H]3OC(=O)C(=C)[C@@H]3CC1)=C\CC[C@@]1(C)O[C@@H]21 .
result: active

query: Each compound tested received a call. Report the one for Cc1ccc(-n2nnc3c(sc4ccccc43)c2=O)cc1 .
result: inactive

query: Each compound tested received a call. Report the one for C#C[C@]1(O)CC[C@H]2[C@@H]3CC[C@H]4CC(F)(F)CC[C@]4(C)[C@H]3CC[C@@]21C .
result: inactive

query: Each compound tested received a call. Report the one for C[C@]12CC[C@H]3[C@@H](CC=C4C[C@@H](O)CC[C@@]43C)[C@@H]1CC[C@@H]2C(=O)C/C=N/O .
result: inactive

query: Each compound tested received a call. Report the one for Cc1cc(C)c2c(Nc3ncnc4c3sc3nc(C)cc(C)c34)n[nH]c2n1 .
result: inactive

query: Each compound tested received a call. Report the one for O/N=C1\CCC2CCCCC2C1 (configuration not stated) .
result: inactive

query: Each compound tested received a call. Report the one for COc1cc(-c2c(C#N)c(N)n3c(nc4ccccc43)c2C#N)cc(Br)c1OC .
result: active

query: Each compound tested received a call. Report the one for Cc1ccc(/C(CS(=O)(=O)c2ccc(C)cc2)=N\O)cc1 .
result: inactive
